The reader will find IC50 measurements below, all made with Glycogen synthase kinase-3 beta (Homo sapiens).

These recorded examples may help you get a feel for the data.
>>> testvalue("CC(=O)N1C[C@]2(C[C@@]3(CO2)C2=C(N=NC2)NC2=C3C(=O)CC(C)(C)C2)[C@H]1C [US20250313563, Compound 948437]")
"< 100 nM"
>>> testvalue("CC1(C)CC(=O)C2=C(C1)NC1N=NC=C1C21CCCN(c2ccncn2)CC1 (stereo unspecified) [US20250313563, Compound 917145]")
"1000 to 5000 nM"
>>> testvalue("CC[C@]1(c2cccc(C(F)(F)F)c2)C2=C(N=NC2)NC2=C1C(=O)NC2 [US20250313563, Compound 917157]")
"> 5000 nM"
>>> testvalue("CC[C@]1(c2cccc(-c3ccncc3C)c2)C2=CN=NC2NC2=C1C(=O)N[C@]1(CCCOC1)C2 (stereo partly specified) [US20250313563, Compound 947911]")
"< 100 nM"
>>> testvalue("CCC1(c2cccc(-c3ccnc4c3CCC4)c2)C2=C(N=NC2)NC2=C1C(=O)C(C)(C)C2 (stereo unspecified) [US20250313563, Compound 952557]")
"100 to 1000 nM"

Entry under test: CC[C@]1(c2cccc(C(C)C)c2)C2=C(CC(C)(C)NC2=O)NC2N=NC(C(F)(F)F)=C21 (stereo partly specified) [US20250313563, Compound 950493] . Its IC50 was 100 to 1000 nM

----------
# targetOfAssay: Glycogen synthase kinase-3 alpha (Homo sapiens, UniProt P49840)
# Sequence (P49840 whole entry): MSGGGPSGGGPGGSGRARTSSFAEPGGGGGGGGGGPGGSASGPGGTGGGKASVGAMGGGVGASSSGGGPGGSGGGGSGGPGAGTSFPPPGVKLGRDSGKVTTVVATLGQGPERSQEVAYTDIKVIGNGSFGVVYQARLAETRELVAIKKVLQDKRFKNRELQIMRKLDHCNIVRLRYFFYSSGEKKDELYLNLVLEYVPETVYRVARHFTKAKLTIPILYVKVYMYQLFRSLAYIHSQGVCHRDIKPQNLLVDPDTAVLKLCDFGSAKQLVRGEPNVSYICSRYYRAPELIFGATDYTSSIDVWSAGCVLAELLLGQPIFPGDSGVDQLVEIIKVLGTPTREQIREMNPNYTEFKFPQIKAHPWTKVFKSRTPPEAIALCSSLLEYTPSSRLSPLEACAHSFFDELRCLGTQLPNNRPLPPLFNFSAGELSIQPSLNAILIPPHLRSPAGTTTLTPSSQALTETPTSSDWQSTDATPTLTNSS
# assaySummary: TR-FRET Assay
pIC50: −log10 of the molar value.
measurementKind: pIC50

Below is a list of molecules. For each, state its recorded pIC50.
1. COCCN1CC2(C1)C1=C(N=NC1)NC1=C2C(=O)CC(C)(C)C1
2. CC1N=NC2=C1C1(CCCC1)C1=C(CC(C)(C)CC1=O)N2 (centres undefined)
3. CC[C@@]1(c2cccc(-c3ccncc3C)c2)C2=C(CC(C)(C)CC2=O)NC2N=NC(C(F)(F)F)=C21 (some centres undefined)

Ans:
1. < 5.30
2. > 7.00
3. > 7.00

Entry under test: CC[C@]1(c2cccc(N(C)c3ccnc(F)c3)c2)C2=CN=NC2NC2=C1C(=O)CC(C)(C)C2 (some centres undefined) . Its pIC50 was > 7.00

----------
pIC50: −log10 of the molar value.
The reader will find pIC50 measurements below, all made with Glycogen synthase kinase-3 beta (Homo sapiens, UniProt P49841).
Sequence (P49841 whole entry): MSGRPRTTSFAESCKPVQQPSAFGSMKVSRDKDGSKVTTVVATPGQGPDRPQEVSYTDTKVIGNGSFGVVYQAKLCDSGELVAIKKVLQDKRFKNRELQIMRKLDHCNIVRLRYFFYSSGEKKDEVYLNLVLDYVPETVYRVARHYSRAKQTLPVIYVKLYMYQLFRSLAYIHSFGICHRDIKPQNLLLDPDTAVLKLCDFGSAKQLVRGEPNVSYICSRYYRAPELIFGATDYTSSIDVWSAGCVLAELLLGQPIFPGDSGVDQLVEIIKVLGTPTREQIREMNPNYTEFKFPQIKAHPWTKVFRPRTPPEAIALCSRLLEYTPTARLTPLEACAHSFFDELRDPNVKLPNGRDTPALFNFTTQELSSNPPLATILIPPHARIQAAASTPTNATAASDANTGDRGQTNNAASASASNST

These recorded examples may help you get a feel for the data.
>>> testvalue("CC[C@@]1(c2cccc(N(C)C(C)=O)c2)C2=CN=NC2NC2=C1C(=O)CC(C)(C)C2 (stereo partly drawn)")
"< 5.30"
>>> testvalue("CCC1(c2cccc(S(=O)(=O)C3CC3)c2)C2=CN=NC2NC2=C1C(=O)N(C)C(C)(C)C2 (stereo not drawn)")
"> 7.00"
>>> testvalue("CCC1(c2cccc(-n3ccnc3)c2)C2=CN=NC2NC2=C1C(=O)CC(C)(C)C2 (stereo not drawn)")
"6.00 to 7.00"
>>> testvalue("CC[C@]1(c2cccc(C(F)(F)F)c2)C2=CN=NC2NC2=C1C(=O)N(C(C)C)CC2 (stereo partly drawn)")
"6.00 to 7.00"
>>> testvalue("CC[C@@]1(c2cccc(-c3ccnc(C)c3F)c2)C2=CN=NC2NC2=C1C(=O)NC(C)(C)C2 (stereo partly drawn)")
"6.00 to 7.00"
>>> testvalue("CC[C@@]1(c2cccc(N(C)c3ncccn3)c2)C2=CN=NC2NC2=C1C(=O)NC(C)(C)C2 (stereo partly drawn) [US20250313563, Compound 947826]")
"> 7.00"
>>> testvalue("CC[C@@]1(c2cccc(-c3cnn4c3OCCC4)c2)C2=CN=NC2NC2=C1C(=O)NC(C)(C)C2 (stereo partly drawn)")
"6.00 to 7.00"
>>> testvalue("CC[C@]1(c2cccc(-c3c(C)nn(C)c3C)c2)C2=C(CC(C)(C)NC2=O)NC2N=NC(C)=C21 (stereo partly drawn)")
"5.30 to 6.00"

Below is a list of compounds. For each, state its recorded pIC50.
1. CCC1(c2cccc(N(C)c3cc(C)cc(C)n3)c2)C2=CN=NC2NC2=C1C(=O)CC(C)(C)C2 (stereo not drawn)
2. CC[C@@]1(c2cccc(-c3ccnc(N(C)C)c3)c2)C2=C(CC(C)(C)CC2=O)NC2N=NC(C)=C21 (stereo partly drawn)

Ans:
["6.00 to 7.00", "> 7.00"]

These data points were gathered from BindingDB's records for patent US20250313563.
